Target: Vasopressin V1b receptor (Homo sapiens)
Sequence (P47901 whole entry): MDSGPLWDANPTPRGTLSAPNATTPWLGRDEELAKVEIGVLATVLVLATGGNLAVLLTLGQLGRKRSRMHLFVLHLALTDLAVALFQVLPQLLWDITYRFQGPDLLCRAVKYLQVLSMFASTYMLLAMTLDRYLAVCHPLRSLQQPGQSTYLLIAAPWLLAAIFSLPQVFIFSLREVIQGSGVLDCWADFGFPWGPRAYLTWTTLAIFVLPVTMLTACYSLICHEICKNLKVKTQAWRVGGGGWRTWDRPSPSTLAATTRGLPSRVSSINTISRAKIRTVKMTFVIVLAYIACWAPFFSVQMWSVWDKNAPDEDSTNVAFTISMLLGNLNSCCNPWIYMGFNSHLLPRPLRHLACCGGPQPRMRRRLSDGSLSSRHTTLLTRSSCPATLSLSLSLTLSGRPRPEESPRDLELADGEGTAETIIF
Assay: Displacement of [3H]AVP from human vasopresin3 receptor expressed in CHO cells
quantity measured: IC50 (µM)

Reference set, count: 4
In [3]: df
Out[3]:
                        structure_as_smiles                                tested_on  test_result
0  CN1CCN(CCCCOc2ccc3nc(-c4ccccc4)n(CC(=O)NCC4CC4)c(=O)c3c2)CC1  Vasopressin V1b receptor (Homo sapiens)          4.8
1  O=C(Cn1c(-c2ccccc2)nc2ccc(OCCCN3CCCC3)cc2c1=O)NCC1CC1  Vasopressin V1b receptor (Homo sapiens)          1.8
2  O=C(Cn1c(-c2ccccc2)nc2ccc(OCCCN3CCOCC3)cc2c1=O)NCC1CC1  Vasopressin V1b receptor (Homo sapiens)         0.12
3  CNCCCOc1ccc2nc(-c3ccccc3)n(CC(=O)NCC3CC3)c(=O)c2c1  Vasopressin V1b receptor (Homo sapiens)          7.6

(P) CN1CCN(CCOc2ccc3nc(-c4ccccc4)n(CC(=O)NCC4CC4)c(=O)c3c2)CC1
(Q) O=C(Cn1c(-c2ccccc2)nc2ccc(OCCCN3CCCCC3)cc2c1=O)NCC1CC1
(R) CC(C)C[C@@H](COc1ccc2nc(-c3ccccc3)n(CC(=O)NCC3CC3)c(=O)c2c1)NC(=O)CN
(S) COC1CCN(CCCOc2ccc3nc(-c4ccccc4)n(CC(=O)NCC4CC4)c(=O)c3c2)CC1
(T) CC(C)C[C@H](N)COc1ccc2nc(-c3ccccc3)n(CC(=O)NCC3CC3)c(=O)c2c1
Exam item: Ascending by IC50, please: list the molecules accordingly. # list labels per requested ordering
Marked response: Q, S, T, R, P

(I) O=C(Cn1c(-c2ccccc2)nc2ccc(OCCCN3CCNCC3)cc2c1=O)NCC1CC1
(II) CCN(CC)CCCOc1ccc2nc(-c3ccccc3)n(CC(=O)NCC3CC3)c(=O)c2c1
(III) CN1CCN(CCCOc2ccc3nc(-c4ccccc4)n(CC(=O)NCC4CC4)c(=O)c3c2)CC1
(IV) O=C(Cn1c(-c2ccccc2)nc2ccc(OCCCN3CCCCCC3)cc2c1=O)NCC1CC1
(V) CC(C)C[C@@H](COc1ccc2nc(-c3ccccc3)n(CC(=O)NCC3CC3)c(=O)c2c1)NC(=O)[C@@H](N)Cc1ccc(O)cc1
Exam item: Ascending by IC50, please: list the molecules accordingly. # list labels per requested ordering
Marked response: V, IV, III, II, I

(A) NCCOc1ccc2nc(-c3ccccc3)n(CC(=O)NCC3CC3)c(=O)c2c1
(B) O=C(Cn1c(-c2ccccc2)nc2ccc(OCCCN3CCC(O)CC3)cc2c1=O)NCC1CC1
Exam item: Between these two entries, A and B , state which has the higher IC50. // output: label of the selected item
Marked response: A

(1) NCC(=O)NCCOc1ccc2nc(-c3ccccc3)n(CC(=O)NCC3CC3)c(=O)c2c1
(2) NCCCOc1ccc2nc(-c3ccccc3)n(CC(=O)NCC3CC3)c(=O)c2c1
Exam item: Between these two entries, 1 and 2 , state which has the higher IC50. // output: label of the selected item
Marked response: 1
(1: 30.5 µM, 2: 3.6 µM)
